Provenance of the data: patent US7488598B2

Procedure Summary: E. coli PNP enzyme activity with substrate MeP-dR
Test Settings: substrate MeP-dR; percent of wild-type activity
Assay Endpoint: Percent of Control Activity, MeP-dR
Answer with the value and then the unit.

D205A (protein, UniProt P0ABP8 2-239, looked up, variant D205A) Purine nucleoside …: ATPHINAEMGDFADVVLMPGDPLRAKYIAETFLEDAREVNNVRGMLGFTGTYKGRKISVMGHGMGIPSCSIYTKELITDFGVKKIIRVGSCGAVLPHVKLRDVVIGMGACTDSKVNRIRFKDHDFAAIADFDMVRNAVDAAKALGIDARVGNLFSADLFYSPDGEMFDVMEKYGILGVEMEAAGIYGVAAEFGAKALTICTVSAHIRTHEQTTAAERQTTFNDMIKIALESVLLGDKE: 1.0%

// query # lookup: Percent of Control Activity, MeP-dR of E180D (protein, UniProt P0ABP8 2-239, looked up, variant E180D) Purine nucleoside …: ATPHINAEMGDFADVVLMPGDPLRAKYIAETFLEDAREVNNVRGMLGFTGTYKGRKISVMGHGMGIPSCSIYTKELITDFGVKKIIRVGSCGAVLPHVKLRDVVIGMGACTDSKVNRIRFKDHDFAAIADFDMVRNAVDAAKALGIDARVGNLFSADLFYSPDGEMFDVMEKYGILGVDMEAAGIYGVAAEFGAKALTICTVSDHIRTHEQTTAAERQTTFNDMIKIALESVLLGDKE
// result 81%
